Form field: protein stability index (one value per entry).
B1: DCAF4 (parent)
chain: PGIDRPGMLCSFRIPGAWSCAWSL

Variants of: B1
TEST SUMMARY: protein stability index of a GFP-peptide fusion (GPS, HEK-293T) (PSI 1-6); higher = more stable;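 note: lentivirally expressed fusions sorted by FACS into six bins by GFP to DsRed ratio, PSI derived from sequencing read proportions per bin multiplied by bin number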
MEASUREMENT CONTEXT: c terminus: a fixed tail appended
A bare number is all that is needed in reply.

sequence_entry="PGIDRPGMLCSFRIPNAWSCAWSL [G16N]" measured_result=2.91
sequence_entry="PGIDRPGMKCSFRIPGAWSCAWSL [L9K]" measured_result=3.08
sequence_entry="PGIDRPGMLCSFRIPGAWSCAWAL [S23A]" measured_result=2.91
sequence_entry="KGIDRPGMLCSFRIPGAWSCAWSL [P1K]" measured_result=1.96
sequence_entry="PGIDRPGMLCMFRIPGAWSCAWSL [S11M]" measured_result=2.95
sequence_entry="PGIDRPGMICSFRIPGAWSCAWSL [L9I]" measured_result=3.09

protein stability index lookup needed for PGDDRPGMLCSFRIPGAWSCAWSL [I3D] , thanks.
1.96

protein stability index lookup needed for PGTDRPGMLCSFRIPGAWSCAWSL [I3T] , thanks.
2.93
